Numbers sourced from PubChem BioAssay AID602281.

Let's look at some compounds and their measured inhibition.
Molecular target: Perilipin-5 (Homo sapiens) + 1-acylglycerol-3-phosphate O-acyltransferase ABHD5 (Homo sapiens) (UniProt Q00G26+Q8WTS1)
Sequence (Q00G26 whole entry, looked up): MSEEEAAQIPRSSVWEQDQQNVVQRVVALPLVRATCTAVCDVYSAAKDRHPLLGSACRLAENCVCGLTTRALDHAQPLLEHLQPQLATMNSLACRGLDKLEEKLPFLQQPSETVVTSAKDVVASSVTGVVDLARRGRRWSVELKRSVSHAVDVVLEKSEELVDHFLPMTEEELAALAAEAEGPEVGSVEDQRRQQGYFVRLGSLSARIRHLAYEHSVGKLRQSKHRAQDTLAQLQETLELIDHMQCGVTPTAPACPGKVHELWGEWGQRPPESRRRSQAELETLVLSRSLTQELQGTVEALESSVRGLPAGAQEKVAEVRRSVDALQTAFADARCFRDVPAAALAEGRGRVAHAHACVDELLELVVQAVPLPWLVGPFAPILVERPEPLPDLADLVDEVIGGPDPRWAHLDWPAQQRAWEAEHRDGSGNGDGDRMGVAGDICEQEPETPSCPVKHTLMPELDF
Sequence (Q8WTS1 whole entry, looked up): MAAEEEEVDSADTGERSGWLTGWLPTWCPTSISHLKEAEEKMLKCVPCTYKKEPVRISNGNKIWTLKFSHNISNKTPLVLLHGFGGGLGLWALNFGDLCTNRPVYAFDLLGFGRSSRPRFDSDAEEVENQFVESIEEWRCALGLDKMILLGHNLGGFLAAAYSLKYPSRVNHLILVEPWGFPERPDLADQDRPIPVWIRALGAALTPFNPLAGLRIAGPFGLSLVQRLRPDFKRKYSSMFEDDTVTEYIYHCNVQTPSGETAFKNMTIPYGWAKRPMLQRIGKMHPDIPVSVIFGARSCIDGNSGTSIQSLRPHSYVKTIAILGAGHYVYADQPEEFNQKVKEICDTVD
Experiment: ABHD5-PLIN5 interaction inhibitors, primary screen, cell lysate, split luciferase complementation, luminescence (AID 602281);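 also: 0% = DMSO only wells and the 100% control is not disclosed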
Settings: Split G. princeps luciferase complementation, 4 h, at 4 µM, active compounds read high
About 2,900 (0.81%) of roughly 360,000 compounds were called active. Shown is part of a subset that was picked to be rich in actives.
Just the number in %, nothing appended.

What does the record list as inhibition for CSc1ccc(CN2CCC2(C)C(=O)NCc2ccccc2Br)cc1 (configuration not stated) ?
-5.69

Reported inhibition for CC1(C(=O)NCc2cccc3ccccc23)CCN1Cc1ccc(-c2ccccc2)o1 (configuration not stated) : what is it?
40.4

Find the recorded inhibition belonging to CCCn1c(=O)c2[nH]c(C3CCCC3)nc2n(CCC)c1=O and report it.
4.3

For the compound shown here, O=C(/C=C/c1ccccc1)c1ccccc1O , give the reported inhibition.
22.9

What value of measured inhibition is listed for CCc1cccc(NC(=O)CCCN2C(=O)C(c3ccccc3)Oc3cccnc32)c1 (configuration not stated) ?
-1.01

Which value of inhibition has been reported for CC(/C=C/c1ccccc1)=N\NC(=O)C1CC1(C)c1ccccc1 (configuration not stated) in the records?
-4.04

Quick check: inhibition of NS(=O)(=O)c1ccc(NC(=O)COC(=O)C2(c3ccc(F)cc3)CCCC2)cc1 ?
-6.25

Reported inhibition for COC(=O)C1(C)NC(c2ccccc2OC)C2C(=O)N(c3ccccc3)C(=O)C21 (configuration not stated) : what is it?
69.3

---

Molecular target: Perilipin-5 (Homo sapiens) + 1-acylglycerol-3-phosphate O-acyltransferase ABHD5 (Homo sapiens) (UniProt Q00G26+Q8WTS1)
Assay: ABHD5-PLIN5 interaction inhibitors, primary screen, cell lysate, split luciferase complementation, luminescence (AID 602281);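 also: 0% = DMSO only wells and the 100% control is not disclosed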
Details: Split G. princeps luciferase complementation, 4 h, at 4 µM, active compounds read high
The campaign covered roughly 360,000 compounds. About 2,900 (0.81%) were called active. For the sample, actives were picked, then their nearest neighbours and some compounds at random.
MEASURED PARAMETER: inhibition (%)
Respond with the bare value in %.

Entry CCCc1cc(-c2n[nH]c(=S)n2CC)c2ccccc2n1 : reported inhibition = ?
-2.69

What does the record list as inhibition for Nn1c(SCC(=O)NC2CCCc3ccccc32)nnc1C1CC1 (stereo not drawn) ?
10.4

Requested read-out: inhibition. Entry: Cc1cc(-c2n[nH]c(=S)n2/N=C/C(Br)=C/c2ccccc2)n[nH]1
62.1

# query: inhibition of entry CCOc1ccccc1NC(=O)CCc1nnc2ccc(NCc3ccco3)nn12
16.7

***
# get_value(readout='inhibition', item= CC(=O)c1ccc(NC(=O)CCc2nnc3ccc(NCc4ccco4)nn23)cc1 )
27.9

Please report the recorded inhibition for COC(=O)[C@@]12C[C@@H](CC(=O)NCc3cccc(C(F)(F)F)c3)C(=O)N(Cc3ccco3)C1=CCC(C)(C)C2 .
-1.98

---

Target: Perilipin-5 (Homo sapiens) + 1-acylglycerol-3-phosphate O-acyltransferase ABHD5 (Homo sapiens) (UniProt Q00G26+Q8WTS1)
Test: ABHD5-PLIN5 interaction inhibitors, primary screen, cell lysate, split luciferase complementation, luminescence (AID 602281);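 also: 0% = DMSO only wells and the 100% control is not disclosed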
Conditions: Split G. princeps luciferase complementation, 4 h, at 4 µM, active compounds read high
The campaign covered roughly 360,000 compounds. About 2,900 (0.81%) were called active. This is one part of a sample in which actives are shown more often than they occur.
MEASURED PARAMETER: inhibition (%)
Field: numeric (%). Do not append units.

The following compounds have reported results that may help.
Return reported inhibition; argument: CN(C)CCCN(C(=O)c1ccc(S(=O)(=O)N2CCCCCC2)cc1)c1nc2ccc(Br)cc2s1
22.3

Query: inhibition; subject: COc1ccc(C(=O)CCc2ccccc2O)c(OC)c1
0.27

Next, consider the following compound.
Would you mind telling me what inhibition value was observed for CCCOC1CCCN(C(=O)c2cc(COc3cncc(Cl)c3)on2)C1 (stereo not drawn) ?
1.32
